Reference source for all entries: patent EP0392976A1

Give measured pIC50 for each item. Keep answers brief.
- Tested target: MAb 1228P63.1
- Test protocol: inhibition enzyme immunoassay: inhibition of MAb binding to surface bound R-(-)-oxaprotiline-mucin conjugate
- Applied conditions: MAb 1228P63.1; read-out: IC₅₀
Interpret pIC50 as the negative base-10 log of the concentration measured in mol/L.

What pIC50 value was documented for this compound, CNC[C@H](O)CC12CCC(c3ccccc31)c1ccccc12 ?
9.12

What pIC50 value was documented for this compound, NCC(O)CC12CCC(c3ccccc31)c1ccccc12 (centres unmarked) ?
8.78

What pIC50 value was documented for this compound, CN1COC(CC23CCC(c4ccccc42)c2ccccc23)C1 (centres unmarked) ?
8.92

* * *

- Tested on: MAb 1219S78.6
- Test protocol: inhibition enzyme immunoassay: inhibition of MAb binding to surface bound R-(-)-oxaprotiline-mucin conjugate
- Design: species or system mouse
Readout type: IC50 relative to reference compound (fold)

What IC50 relative to reference compound (fold) value was documented for this molecule, CN(C)CC(O)CC12CCC(c3ccccc31)c1ccc(C(F)(F)F)cc12 (stereo not shown) ?
>3279

What IC50 relative to reference compound (fold) value was documented for this molecule, CNCC(O)CC12CCC(c3ccccc31)c1ccc(C(F)(F)F)cc12 (stereo not shown) ?
>3279

What IC50 relative to reference compound (fold) value was documented for this molecule, c1ccc2c(c1)C1CCC2(CC2CNCCO2)c2ccccc21 (stereo not shown) ?
∼49.2

What IC50 relative to reference compound (fold) value was documented for this molecule, CNC[C@H](CC12CCC(c3ccccc31)c1ccccc12)O[C@@H]1O[C@H](C(=O)O)[C@@H](O)[C@H](O)[C@H]1O ?
>3279

* * *

- Test system: MAb 1226S31.3
- Test protocol: inhibition enzyme immunoassay: inhibition of MAb binding to surface bound R-(-)-oxaprotiline-mucin conjugate
- Parameters: species or system mouse
Readout type: rel. affinity

// fetch MAb 1226S31.3 rel. affinity for CNCC(CC12CCC(c3ccccc31)c1ccccc12)OC(C)=O (stereo not drawn) [compound 11]
0.5

// fetch MAb 1226S31.3 rel. affinity for CNCC(O)CC12CCC(c3ccccc31)c1ccccc12 (racemic) [compound 3]
0.5

// fetch MAb 1226S31.3 rel. affinity for CNC[C@@H](O)CC12CCC(c3ccccc31)c1ccccc12 [compound 2]
∼0.6

* * *

- Tested on: MAb 1225S93.2
- Test protocol: inhibition enzyme immunoassay: inhibition of MAb binding to surface bound R-(-)-oxaprotiline-mucin conjugate
- Set-up: species or system mouse
Classification field: enter yes for rel. affinity values not below 6, no for values below it.

Does CNC[C@@H](O)CC12CCC(c3ccccc31)c1ccccc12 have a reported rel. affinity of at least 6?
no

Does CNCC(O)CC12CCC(c3ccccc31)c1ccc(C(F)(F)F)cc12 (centres unmarked) have a reported rel. affinity of at least 6?
yes

Does CN(C)CC(O)CC12CCC(c3ccccc31)c1ccc(C(F)(F)F)cc12 (centres unmarked) have a reported rel. affinity of at least 6?
yes

Does CNCC(O)CC12CCC(c3ccccc31)c1ccccc12 (racemic) have a reported rel. affinity of at least 6?
no

Does CNC[C@@H](CC12CCC(c3ccccc31)c1ccccc12)O[C@@H]1O[C@H](C(=O)O)[C@@H](O)[C@H](O)[C@H]1O have a reported rel. affinity of at least 6?
yes

Does c1ccc2c(c1)C1CCC2(CC2CNCCO2)c2ccccc21 (centres unmarked) have a reported rel. affinity of at least 6?
yes

Does CNC[C@H](CC12CCC(c3ccccc31)c1ccccc12)O[C@@H]1O[C@H](C(=O)O)[C@@H](O)[C@H](O)[C@H]1O have a reported rel. affinity of at least 6?
yes

Does CN(C)CC(O)CC12CCC(c3ccccc31)c1ccc(Cl)cc12 (centres unmarked) have a reported rel. affinity of at least 6?
yes

* * *

- Tested target: MAb 1219S78.6
- Test protocol: inhibition enzyme immunoassay: inhibition of MAb binding to surface bound R-(-)-oxaprotiline-mucin conjugate
- Applied conditions: MAb 1219S78.6; read-out: IC₅₀
Readout type: pIC50
Interpret pIC50 as the negative base-10 log of the concentration measured in mol/L.

What pIC50 value was documented for this compound, CNC[C@H](O)CC12CCC(c3ccccc31)c1ccccc12 [compound 1] ?
9.52

What pIC50 value was documented for this compound, CN1COC(CC23CCC(c4ccccc42)c2ccccc23)C1 (centres unmarked) [compound 13] ?
9.32

What pIC50 value was documented for this compound, CNCC(O)CC12CCC(c3ccccc31)c1ccccc12 (racemic) [compound 3] ?
9.29

What pIC50 value was documented for this compound, NCC(O)CC12CCC(c3ccccc31)c1ccccc12 (centres unmarked) [compound 7] ?
7.12

* * *

- Tested target: MAb 1219S78.6
- Test protocol: inhibition enzyme immunoassay: inhibition of MAb binding to surface bound R-(-)-oxaprotiline-mucin conjugate
- Applied conditions: MAb 1219S78.6; read-out: IC₅₀
pIC50: −log10 of the molar value.
Readout type: pIC50

What pIC50 value was documented for this molecule, c1ccc2c(c1)C1CCC2(CC2CNCCO2)c2ccccc21 (stereo not shown) ?
~7.82

What pIC50 value was documented for this molecule, CNC[C@H](CC12CCC(c3ccccc31)c1ccccc12)O[C@@H]1O[C@H](C(=O)O)[C@@H](O)[C@H](O)[C@H]1O ?
< 6.00

What pIC50 value was documented for this molecule, CNCC(O)CC12CCC(c3ccccc31)c1ccc(C(F)(F)F)cc12 (stereo not shown) ?
< 6.00

What pIC50 value was documented for this molecule, CN(C)CC(O)CC12CCC(c3ccccc31)c1ccc(C(F)(F)F)cc12 (stereo not shown) ?
< 6.00
